Recorded values, source patent US9518038B2.

- System: human breast cancer cells MCF-7 xenograft
- procedure.details: In-vivo growth of MCF-7 xenografts in nude mice
- Parameters: species or system BALB/c nude mice
- measurement.conditions: Mus musculus, MCF7, ip, 60 mg/kg intraperitoneal once a day, vs DMSO solvent control, read-out: Curative effect (inhibition rate %) of tumor weight
endpoint.name: inhibition in vivo at 60 mg/kg (%)
Please reply with the bare figure in % and do not write the unit itself.

Entry CCNC(=O)CC[C@H](N)C(=O)OC , tested on human breast cancer cells MCF-7 xenograft, has a reported inhibition in vivo at 60 mg/kg of 39.8

Entry CCNC(=O)CCC(NC(=O)c1cc2ccccc2oc1=O)C(=O)OCC (stereo not shown) , tested on human breast cancer cells MCF-7 xenograft, has a reported inhibition in vivo at 60 mg/kg of 52.6

Entry CCNC(=O)CC[C@@H](NC(=O)c1cc2cc(Br)cc(Br)c2oc1=O)C(=O)OCC , tested on human breast cancer cells MCF-7 xenograft, has a reported inhibition in vivo at 60 mg/kg of 58.9

Entry CCNC(=O)CC[C@@H](NC(=O)c1cc2cc(Br)ccc2oc1=O)C(=O)OCC , tested on human breast cancer cells MCF-7 xenograft, has a reported inhibition in vivo at 60 mg/kg of 56.6

###

- Test system: human prostate cancer cells PC-3
- procedure.details: MTT growth inhibition, PC-3 cells
- Type: cell-based
- measurement.conditions: 72 h after treatment, read-out: Drug concentration (IC50) at which 50% cancer cells survived
Please provide measured pIC50 for the entries that follow.
Recall that pIC50 is obtained by taking minus log10 of the concentration measured in molar.

The compound listed as CCNC(=O)CCC(NC(=O)c1cc2ccccc2oc1=O)C(=O)OCC (stereo not drawn) shows pIC50 equal to 3.90

The compound listed as O=C(O)c1cc2cc([N+](=O)[O-])ccc2oc1=O shows pIC50 equal to 3.28

The compound listed as CCNC(=O)CC[C@H](N)C(=O)OCC shows pIC50 equal to 3.40

###

- Tested on: HDAC4
- procedure.details: HDAC4 enzyme activity in nuclear extracts of human tumor xenografts of treated mice
- measurement.conditions: MDA-MB231 tumor grown in vivo; second value of the pair HDAC3 and HDAC4; SAHA 25 mg/kg
Please provide measured decrease of HDAC4 enzyme activity/inhibition rate for the entries that follow.

The molecule listed as CCNC(=O)CC[C@@H](NC(=O)c1cc2cc(Cl)ccc2oc1=O)C(=O)OCC shows decrease of HDAC4 enzyme activity/inhibition rate equal to 65%*(MDA-MB231)

The molecule listed as CCNC(=O)CC[C@@H](NC(=O)c1cc2cc(Br)ccc2oc1=O)C(=O)OCC shows decrease of HDAC4 enzyme activity/inhibition rate equal to 65%*(MDA-MB231)

The molecule listed as CCNC(=O)CC[C@@H](NC(=O)c1cc2cc(Cl)cc(Cl)c2oc1=O)C(=O)OCC shows decrease of HDAC4 enzyme activity/inhibition rate equal to 66%*(MDA-MB231)

The molecule listed as CCNC(=O)CCC(NC(=O)c1cc2cc(F)ccc2oc1=O)C(=O)OCC (stereo in doubt) shows decrease of HDAC4 enzyme activity/inhibition rate equal to 62%*(MDA-MB231)

The molecule listed as CCNC(=O)CCC(NC(=O)c1cc2cc([N+](=O)[O-])ccc2oc1=O)C(=O)OCC (stereo in doubt) shows decrease of HDAC4 enzyme activity/inhibition rate equal to 67%*(MDA-MB231)

The molecule listed as CCNC(=O)CC[C@@H](NC(=O)c1cc2cc(Br)cc(Br)c2oc1=O)C(=O)OCC shows decrease of HDAC4 enzyme activity/inhibition rate equal to 64%*(MDA-MB231)

###

- System: human breast cancer cells MDA-MB231 xenograft
- procedure.details: In-vivo growth of MDA-MB231 xenografts in nude mice
- Design: species or system BALB/c nude mice
- measurement.conditions: Mus musculus, MDA-MB-231, ip; MB-231 xenograft; 90 mg/kg intraperitoneal once a day; vs DMSO solvent control; read-out: Curative effect (inhibition rate %) of tumor weight
endpoint.name: inhibition in vivo at 90 mg/kg (%)
Please reply with the bare figure in % and do not write the unit itself.

The compound listed as CCNC(=O)CC[C@@H](NC(=O)c1cc2cc(Br)cc(Br)c2oc1=O)C(=O)OCC shows inhibition in vivo at 90 mg/kg equal to 75.1

The compound listed as CCNC(=O)CCC(NC(=O)c1cc2cc(F)ccc2oc1=O)C(=O)OCC (stereo in doubt) shows inhibition in vivo at 90 mg/kg equal to 60.9

The compound listed as CCNC(=O)CC[C@H](N)C(=O)OCC shows inhibition in vivo at 90 mg/kg equal to 47.8

The compound listed as CCNC(=O)CC[C@H](N)C(=O)OC shows inhibition in vivo at 90 mg/kg equal to 36.1

The compound listed as CCNC(=O)CCC(NC(=O)c1cc2ccccc2oc1=O)C(=O)OC (stereo not shown) shows inhibition in vivo at 90 mg/kg equal to 60.1

The compound listed as CCNC(=O)CC[C@@H](NC(=O)c1cc2cc(Br)ccc2oc1=O)C(=O)OCC shows inhibition in vivo at 90 mg/kg equal to 66.7

The compound listed as CCNC(=O)CC[C@@H](NC(=O)c1cc2cc(Cl)ccc2oc1=O)C(=O)OCC shows inhibition in vivo at 90 mg/kg equal to 65.5

The compound listed as CCNC(=O)CCC(NC(=O)c1cc2cc([N+](=O)[O-])ccc2oc1=O)C(=O)OCC (stereo in doubt) shows inhibition in vivo at 90 mg/kg equal to 62.3

The compound listed as CCNC(=O)CC[C@@H](NC(=O)c1cc2cc(Cl)cc(Cl)c2oc1=O)C(=O)OCC shows inhibition in vivo at 90 mg/kg equal to 72.1

The compound listed as CCNC(=O)CCC(NC(=O)c1cc2ccccc2oc1=O)C(=O)OCC (stereo not shown) shows inhibition in vivo at 90 mg/kg equal to 69.1

###

Please provide measured inhibition in vivo at 60 mg/kg for the entries that follow.
- System: human cervical cancer cells Hela xenograft
- procedure.details: In-vivo growth of Hela xenografts in nude mice
- Design: species or system BALB/c nude mice
- measurement.conditions: Mus musculus, ip, 60 mg/kg intraperitoneal once a day, vs DMSO solvent control, read-out: Curative effect (inhibition rate %) of tumor weight
Please reply with the bare figure in % and do not write the unit itself.

The molecule listed as CCNC(=O)CCC(NC(=O)c1cc2ccccc2oc1=O)C(=O)OCC (stereo not shown) [Compound Ib] shows inhibition in vivo at 60 mg/kg equal to 53.9

The molecule listed as CCNC(=O)CC[C@H](N)C(=O)OC [Compound IIa, theanine methyl ester] shows inhibition in vivo at 60 mg/kg equal to 38.7

The molecule listed as CCNC(=O)CC[C@@H](NC(=O)c1cc2cc(Br)ccc2oc1=O)C(=O)OCC [Compound Id] shows inhibition in vivo at 60 mg/kg equal to 57.9

The molecule listed as CCNC(=O)CC[C@@H](NC(=O)c1cc2cc(Cl)ccc2oc1=O)C(=O)OCC [Compound Ic] shows inhibition in vivo at 60 mg/kg equal to 53.7

The molecule listed as CCNC(=O)CC[C@@H](NC(=O)c1cc2cc(Br)cc(Br)c2oc1=O)C(=O)OCC [Compound Ih] shows inhibition in vivo at 60 mg/kg equal to 62.9

The molecule listed as CCNC(=O)CC[C@H](N)C(=O)OCC [Compound IIb, theanine ethyl ester] shows inhibition in vivo at 60 mg/kg equal to 41.7

The molecule listed as CCNC(=O)CC[C@@H](NC(=O)c1cc2cc(Cl)cc(Cl)c2oc1=O)C(=O)OCC [Compound Ig] shows inhibition in vivo at 60 mg/kg equal to 56.7

The molecule listed as CCNC(=O)CCC(NC(=O)c1cc2cc([N+](=O)[O-])ccc2oc1=O)C(=O)OCC (stereo in doubt) [Compound If] shows inhibition in vivo at 60 mg/kg equal to 50.9

The molecule listed as CCNC(=O)CCC(NC(=O)c1cc2ccccc2oc1=O)C(=O)OC (stereo not shown) [Compound Ia] shows inhibition in vivo at 60 mg/kg equal to 54.7

The molecule listed as CCNC(=O)CCC(NC(=O)c1cc2cc(F)ccc2oc1=O)C(=O)OCC (stereo in doubt) [Compound Ie] shows inhibition in vivo at 60 mg/kg equal to 60.7

###

- Test system: nucleoprotein factor NF-κB (p65)-DNA binding activity
- procedure.details: NF-κB (p65)-DNA binding activity (EMSA)
- Format: cell-based
- measurement.conditions: A549 cells; EMSA, nuclear protein extracts, 48 h; read-out: Effective concentration for 50% inhibition of binding of nucleoprotein factor NF-kB (p65) and DNA
endpoint.name: IC50

Entry CCNC(=O)CC[C@@H](NC(=O)c1cc2cc(Cl)cc(Cl)c2oc1=O)C(=O)OCC [Compound Ig] , tested on nucleoprotein factor NF-κB (p65)-DNA binding activity, has a reported IC50 of < 70 µM

Entry CCNC(=O)CCC(NC(=O)c1cc2cc(F)ccc2oc1=O)C(=O)OCC (stereo in doubt) [Compound Ie] , tested on nucleoprotein factor NF-κB (p65)-DNA binding activity, has a reported IC50 of < 120 µM

Entry CC[C@]1(O)C[C@H]2CN(CCc3c([nH]c4ccccc34)[C@@](C(=O)OC)(c3cc4c(cc3OC)N(C=O)[C@H]3[C@@](O)(C(=O)OC)[C@H](OC(C)=O)[C@]5(CC)C=CCN6CC[C@]43[C@@H]65)C2)C1 [Vincristine, reference compound] , tested on nucleoprotein factor NF-κB (p65)-DNA binding activity, has a reported IC50 of > 70 µM

Entry CCNC(=O)CC[C@@H](NC(=O)c1cc2cc(Br)ccc2oc1=O)C(=O)OCC [Compound Id] , tested on nucleoprotein factor NF-κB (p65)-DNA binding activity, has a reported IC50 of < 110 µM

Entry CCNC(=O)CCC(NC(=O)c1cc2ccccc2oc1=O)C(=O)OCC (centres unmarked) [Compound Ib] , tested on nucleoprotein factor NF-κB (p65)-DNA binding activity, has a reported IC50 of < 135 µM

Entry CCNC(=O)CC[C@@H](NC(=O)c1cc2cc(Cl)ccc2oc1=O)C(=O)OCC [Compound Ic] , tested on nucleoprotein factor NF-κB (p65)-DNA binding activity, has a reported IC50 of < 125 µM

Entry CCNC(=O)CCC(NC(=O)c1cc2cc([N+](=O)[O-])ccc2oc1=O)C(=O)OCC (stereo in doubt) [Compound If] , tested on nucleoprotein factor NF-κB (p65)-DNA binding activity, has a reported IC50 of < 100 µM

Entry CCNC(=O)CC[C@@H](NC(=O)c1cc2cc(Br)cc(Br)c2oc1=O)C(=O)OCC [Compound Ih] , tested on nucleoprotein factor NF-κB (p65)-DNA binding activity, has a reported IC50 of < 70 µM
